meta.source: ChEMBL document CHEMBL1671626

Test system: Serratia marcescens
assay_explanation: Antibacterial activity against ceftazidime-susceptible Serratia marcescens assessed as resistant isolates by CLSI M7-A7 broth microdilution method
Assay type: functional
Item-by-item account of Activity
endpoint: Activity (%)

compound="C[C@H]1COc2c(N3CCN(C)CC3)c(F)cc3c(=O)c(C(=O)O)cn1c23.C[C@H]1COc2c(N3CCN(C)CC3)c(F)cc3c(=O)c(C(=O)O)cn1c23.O [LEVOFLOXACIN]" measured_number=1.7
compound="C[C@@H](O)[C@H]1C(=O)N2C(C(=O)O)=C(SCCNC=N)C[C@H]12 [IMIPENEM ANHYDROUS]" measured_number=0
compound="CC1(C)S[C@@H]2[C@H](NC(=O)[C@H](N)c3ccccc3)C(=O)N2[C@H]1C(=O)O [AMPICILLIN]" measured_number=83.1
